These measurements were taken from patent US11999732B2.

Molecular target: human P2X3 receptor (Homo sapiens, UniProt P56373)
Construct: expressed in transfected cells; host or cells: CHO-K1
Sequence (P56373 1-397): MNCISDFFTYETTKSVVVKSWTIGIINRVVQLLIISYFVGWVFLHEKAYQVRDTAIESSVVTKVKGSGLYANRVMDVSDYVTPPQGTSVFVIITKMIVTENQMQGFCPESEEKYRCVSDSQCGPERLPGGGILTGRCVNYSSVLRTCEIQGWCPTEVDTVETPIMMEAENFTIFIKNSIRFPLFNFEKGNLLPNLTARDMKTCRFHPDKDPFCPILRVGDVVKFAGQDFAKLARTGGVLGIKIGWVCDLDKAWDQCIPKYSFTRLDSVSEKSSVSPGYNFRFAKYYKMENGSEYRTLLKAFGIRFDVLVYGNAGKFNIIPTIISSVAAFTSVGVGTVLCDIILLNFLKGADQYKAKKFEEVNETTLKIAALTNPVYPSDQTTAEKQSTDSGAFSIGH
Test: Calcium luminescence (photoprotein) assay in CHO-K1 cells co-expressing human P2X3 receptor, α,β-Met-ATP stimulation, FLEXSTATION readout
Assay type: cell-based
Details: Table 6; human P2X3 receptor antagonist activity, CHO-K1 cells, α,β-Met-ATP; read-out: h-P2X3 IC50
For each of the compounds below, state its IC50.
Give just the number in nM; leave the unit off.

Query: IC50; subject: COCCC1CN=C2c3ncc(N4CCOCC4)cc3N(Cc3ccc(OC)cc3)C(=O)N21 (stereo not shown)
2280

Query: IC50; subject: CC(C)(C)C1C(=O)N=C2c3ncc(N4CCOCC4)cc3N(Cc3ccc(Cl)cc3)C(=O)N21 (stereo not shown)
109

Query: IC50; subject: COc1cc(CN2C(=O)N3CC(C(C)C)N=C3c3ncc(N4CCOCC4)cc32)cc(OC)c1 (stereo not shown)
178

Query: IC50; subject: COc1ccc(CN2C(=O)N3C(=NCC3c3ccccc3)c3ncc(N4CCOCC4)cc32)cc1 (stereo not shown)
368
